# Assay System: α-glucosidase enzyme (Saccharomyces cerevisiae, UniProt P53341)
# Sequence (P53341 whole entry): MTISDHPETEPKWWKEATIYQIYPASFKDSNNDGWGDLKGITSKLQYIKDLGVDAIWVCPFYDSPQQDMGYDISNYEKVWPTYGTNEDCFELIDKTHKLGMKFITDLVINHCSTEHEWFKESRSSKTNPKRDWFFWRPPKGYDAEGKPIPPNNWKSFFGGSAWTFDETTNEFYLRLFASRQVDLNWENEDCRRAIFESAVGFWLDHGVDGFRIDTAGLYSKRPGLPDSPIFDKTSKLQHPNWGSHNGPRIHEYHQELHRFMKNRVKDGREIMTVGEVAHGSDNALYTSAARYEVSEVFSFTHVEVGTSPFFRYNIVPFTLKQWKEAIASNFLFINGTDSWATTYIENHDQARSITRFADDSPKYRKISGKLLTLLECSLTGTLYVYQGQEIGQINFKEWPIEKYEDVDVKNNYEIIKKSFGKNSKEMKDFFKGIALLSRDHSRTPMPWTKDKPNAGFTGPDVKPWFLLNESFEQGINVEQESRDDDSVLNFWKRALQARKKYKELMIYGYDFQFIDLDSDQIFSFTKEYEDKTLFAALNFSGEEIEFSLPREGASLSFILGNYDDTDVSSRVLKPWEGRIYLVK
# Assay Remarks: Alpha-glucosidase inhibition
# Format: biochemical
pIC50: −log10 of the molar value.
Measured Metric: pIC50

molecule="C[C@@H]1O[C@@H](O[C@@H]2[C@@H](O)[C@H](OCCc3ccc(O)c(O)c3)O[C@H](CO)[C@H]2OC(=O)/C=C/c2ccc(O)c(O)c2)[C@H](O)[C@H](O)[C@H]1O [Compound 12, verbacoside]" assay_system="α-glucosidase enzyme (Saccharomyces cerevisiae, UniProt P53341)" measured_metric=pIC50 value_measured=4.37
